# target: HLA-DRA1*0101, DRB1*0901 (DR9) (Homo sapiens, UniProt P01903+P01911, A100R/A103E/D57H/D86V/F55Y/F60I/F76Y/I96F/K127E/L162R/M171V/P40D/Q125H/Q99R/R33Q/R42F/S133A/S66N/T210M/V115G/W38K/Y107V/Y59G/Y89S)
# test_protocol: DR9
No end group written: not given here.

{"substance": "KKKVIFKKISRDKSVTIYLGKKK-NH2 [15N3K]", "IC50, µM": 18.4}

* * *

# target: HLA-DRA1*0101, DRB1*0301 (DR3) (Homo sapiens, UniProt P01903+P01911, A100K/A102G/A103R/A169T/F55Y/I96L/K41T/L162R/M171V/P40S/Q125H/Q178H/Q39Y/R42S/S66N/T106N/T262R/W38E/Y61H)
# Sequence (P01903 26-254 limits assumed, other chains not shown): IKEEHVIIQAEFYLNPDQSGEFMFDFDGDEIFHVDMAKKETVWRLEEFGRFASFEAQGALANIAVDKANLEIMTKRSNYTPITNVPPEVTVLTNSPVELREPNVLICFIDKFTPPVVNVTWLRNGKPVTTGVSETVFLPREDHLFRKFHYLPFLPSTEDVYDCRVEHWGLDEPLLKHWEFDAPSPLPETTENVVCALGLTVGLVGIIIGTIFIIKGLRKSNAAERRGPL
# test_protocol: DR3
pIC50: −log10 of the molar value. No end group written: not given here.

{"substance": "KKKVIFKKISRDKSVTIYLGKKK-NH2 [15N3K]", "pIC50": 4.83}

* * *

# target: HLA-DRA1*0101, DRB1*0405 (DR4*05) (Homo sapiens, UniProt P01903+P01911, A100R/A169T/D86S/F76Y/I96L/K127E/L162R/M171V/N62H/P40V/Q125Y/R42H/S133A/S149N/S66Y/V115G/V209L/W38E)
# test_protocol: DR4*05
pIC50: −log10 of the molar value. No end group written: not given here.
test_readout: pIC50

{"substance": "KKKLTFRRDLYFSRVQVYKKK-NH2 [17JK]", "test_readout": "pIC50", "value_observed": 4.76}

* * *

# target: HLA-DRA1*0101, DRB1*1501 (DR2) (Homo sapiens, UniProt P01903+P01911)
# test_protocol: DR2
No end group written: not given here.

{"substance": "KKKAFVEQVANVVLKKK-NH2 [9K1K, KKKAFVEQVANVVLKKK]", "target": "HLA-DRA1*0101, DRB1*1501 (DR2) (Homo sapiens, UniProt P01903+P01911)", "readout_unit": "nM", "IC50": 520}

* * *

# target: HLA-DRA1*0101, DRB1*0101 (DR1) (Homo sapiens, UniProt P01903+P01911, A100R/D57E/F55L/F60I/F76Y/I96L/L162R/M171V/P40L/Q125E/R42F/V115G/Y59C)
# test_protocol: DR1
pIC50: −log10 of the molar value. No end group written: not given here.

{"substance": "KKKLTFRRDLYFSRVQVYKKK-NH2 [17JK]", "pIC50": 5.67}

* * *

# target: HLA-DRA1*0101, DRB1*1101 (DR11) (Homo sapiens, UniProt P01903+P01911, A100R/A169T/A87E/I96F/K41T/L162R/M171V/P40S/Q125H/Q178H/Q39Y/Q99D/R42S/S66Y/T262R/V115G/W38E)
# Sequence (P01903 26-254 limits assumed, other chains not shown): as the sequence (P01903 26-254 limits assumed, other chains not shown) above
# test_protocol: DR11
pIC50: −log10 of the molar value. No end group written: not given here.

{"substance": "KKKLTFRRDLYFSRVQVYKKK-NH2 [17JK]", "pIC50": 6.06}

Source: patent US20230203126A1
